# Tested on: CAKI-1 renal
# test method notes: NCI-60 one-dose screen, 48 h (100 = growth as untreated, 0 = no growth, -100 = all killed)
# reported conditions: 10 µM unless noted
This is part of a sample that, as a whole, favours compounds with a hit. Of some 83,000 tested, about 20% had one in any assay.
Answer each item with its documented growth.
The reply should be a number in %, with the unit left off.

Which growth is listed for CC1CN(C2CCCCC2)C(=S)N(c2ccccc2)C1=O (stereo unspecified) ?
97.9

Fill in: growth of CCc1cccc2c3c(sc12)C(c1ccc(F)cc1)C(C#N)=C(N)O3 (stereo unspecified) is ___
14.5

Recorded growth for C[N+]1=C(/C=C/c2ccc(O)c3ncccc23)C(C)(C)c2ccccc21 , please?
25.7

Recorded growth for Cc1cc2[nH]c(=O)c3c4ncccc4cn3c2cc1C , please?
-24.7

Look at this compound and give its reported growth. Cc1cc(N2CCCC2)nc(N(CCCNc2ccnc3cc(Cl)ccc23)Cc2ccccn2)n1
84.4

Could you share which growth value was measured for CCOC(=O)Cn1c(=O)c2c(c3ccccc3n2C)n2nnc(-c3ccccc3)c12 ?
96.8

###

# System: MCF7 breast
# test method notes: NCI-60 one-dose screen, 48 h
# reported conditions: 10 µM unless noted
This is part of a sample that, as a whole, favours compounds with a hit. Of some 83,000 tested, about 20% had one in any assay. Calls of active or inactive are those of the source. Rule for the calls: active = growth percent below 10; inactive = the rest.
The reply should name one outcome from active, inactive

Which outcome was assigned to Cc1nn(-c2ccccc2)c(-n2ccnc2)c1/C=N/Nc1nc(-c2ccc(F)cc2)cs1 in this test?
inactive

Status in this test for COc1cc2cc(Oc3ccc(NC(=O)Nc4cccc(C(F)(F)F)c4)cc3)c(C)nc2cc1OCCN1CCOCC1 ?
active

Would you mind telling me which call this test gave COc1ccc(CNC(=O)C(=O)[C@H](Cc2ccccc2)NC(=O)c2[nH]c3ccccc3c(=O)c2C)cc1 ?
inactive

Hello, I am checking results. What call was entered for CC1(C)C2CC1C1(/C=N\Nc3ccccc3)C(C2)C(C#N)(C#N)C1(C#N)C#N (centres undefined) ?
inactive

Status in this test for CC(C)OC(=O)Nc1ccc(-c2nc(-c3cccc(OCCN4CCOCC4)c3)c(-c3ccnc(Br)c3)[nH]2)cc1 ?
active

Could you check what this test reported for CCCCCCNC(=O)Oc1ccc(/C(=C(\C)c2ccc(Cl)cc2)c2ccc(OCCN3CCCCC3)cc2)cc1 ?
active

Tell me the assay call for Cc1cc(O)c(C2=NN(c3ccc(S(N)(=O)=O)cc3)C(c3ccccc3O)C2)cc1Cl (centres undefined) please.
active

Just curious, what result did COc1c(B(O)O)cc(F)cc1-c1nc2ccc3[nH]ncc3c2c2c1CCCC2 get here?
active

Per the records of this test, what outcome belongs to C/C(=N/NC(N)=S)c1sc(Nc2cccc(Cl)c2)nc1C ?
inactive

###

# Tested on: A498 renal
# test method notes: NCI-60 one-dose screen, 48 h (100 = growth as untreated, 0 = no growth, -100 = all killed)
# reported conditions: 10 µM unless noted
About 83,000 compounds went through this panel and 20% of them were active in at least one assay; those are over-represented in the sample as a whole.
Decide by growth: equal to or exceeding 60% means true (1), less means false (0).

hey, is growth for this one >= 60%? NCCOc1ncccc1/C=C1\C2C=CC=CC2C2C=CC(F)=CC12 (stereo unspecified)
false (0)

State whether the measured growth reaches 60%, counting equality as reaching it, for Cc1[nH]c(C(=O)Nc2ccc(C(=O)NCCN)cc2OC(C)C)c(Cl)c1Cl
true (1)

Quick check: does COc1ccc(S(=O)(=O)n2cc(C3OC(c4cc(OC)c(OC)c(OC)c4)=NN3C(C)=O)c3ccccc32)cc1OC (stereo unspecified) have growth greater than or equal to 60%?
true (1)

# check: growth of CCN1C(=O)N(CC)C2Nn3c(s/c(=C4\C(=O)N(CCC(C)C)c5ccccc54)c3=O)=NC21 (stereo unspecified) is greater than or equal to 60%
true (1)

Reported growth reaches at least 60% for COc1ccc(/C=N/Nc2cc(=O)[nH]c3ccc(C)cc23)cc1 ?
true (1)

Does the reported growth for CCOC(=O)/C=C1\S/C(=N\Nc2ccc([N+](=O)[O-])cc2[N+](=O)[O-])N(Cc2ccccc2)C1=O fall at or above the 60% mark?
true (1)

growth >= 60% for COC(=O)[C@H](C)NC(=O)NC(=O)NC(=O)CI ?
true (1)

Dear colleague, could you confirm whether Fc1cc2c(cc1Cl)N(c1ncnc3ccc(-c4cnc5cnccn45)cc13)CC2 has growth at or above 60%?
false (0)

API: above_or_equal(metric=growth, cutoff=60%) for item COc1cccc(OC)c1C(=O)N[C@@H]1C(=O)N2[C@@H]1SC(C)(C)[C@@H]2C(=O)O
true (1)

Dear colleague, could you confirm whether Cc1nc(/N=C(\N)NC(=O)Nc2ccccc2Cl)sc1C has growth at or above 60%?
false (0)

I'd appreciate it if you could say whether N#CC1=C(N)Oc2c(sc3c(Br)cccc23)C1c1ccc([N+](=O)[O-])cc1 (stereo unspecified) has growth at least equal to 60%.
false (0)

Answer whether growth of CCOC(=O)C1=C(N)Oc2c(sc3c(C)cccc23)C1c1ccc(OC)cc1 (stereo unspecified) is greater than or equal to 60%.
false (0)

# bool: growth of CCCCC1CCCC12NC(=O)NC2=O (stereo unspecified) >= 60%
true (1)

Check this compound for growth at or above 60%: O=C(N=c1oc2ccccc2cc1-c1cc2ccccc2[nH]1)Nc1ccc(Cl)cc1
true (1)

Check this compound for growth at or above 60%: N#C/C(=C\c1cccc2cnccc12)n1nnc2cccc(F)c21
true (1)

growth >= 60% for COc1ccc2c(c1OC)C(=O)O[C@H]2[C@H]1c2c(cc3c(c2OC)OCO3)CCN1C ?
true (1)

Does O=C(CSc1nccc(Nc2ccc(S(=O)(=O)Nc3nccs3)cc2)n1)c1ccc(C(F)(F)F)cc1 have a reported growth of at least 60%?
true (1)

Is growth for C=C1C(=O)O[C@H]2[C@H]1CC/C(COC(=O)CSCC(=O)OC/C1=C/CC[C@@]3(C)O[C@H]3[C@H]3OC(=O)C(=C)[C@@H]3CC1)=C\CC[C@@]1(C)O[C@@H]21 at or above 60%?
true (1)

Please tell me: is the compound O=CN(SSN(C=O)C1CCCCC1)C1CCCCC1 at or over 60% in terms of growth?
true (1)

# bool: growth of N/C(=N\c1nc2ccccc2s1)NC(=O)Nc1cccc2ccccc12 >= 60%
false (0)

Given COc1cc2cc(Oc3ccc(NC(=O)Nc4ccc(F)c(C(F)(F)F)c4)cc3)c(C)nc2cc1OCCN1CCOCC1 , state whether its growth is at least 60%.
false (0)

Assess whether reported growth for CCC12CCC[N+]3([O-])CCC4(C(=Nc5ccccc54)C(O)(C(=O)OC)C1)C23 (stereo unspecified) sits at 60% or higher.
true (1)

Check if growth >= 60% (inclusive). Item: CNC(C)[C@H]1CCC2C3CCC4C[C@@H](N(C)C(=O)c5ccccc5)CC[C@]4(C)C3CC[C@@]21C (stereo partly specified)
false (0)

Check if growth >= 60% (inclusive). Item: CC(C)(C)NC(=O)C(OC(=O)c1cccc(Cl)c1)c1ccc(Cl)cc1 (stereo unspecified)
true (1)

Textbook exercise: given the entry O=c1c2cc(F)ccc2sc2c(N3CCNCC3)nc3ccccc3c12 , state whether its growth is greater than or equal to 60%.
false (0)

Check the entry CSc1nc2ccc(C)cc2cc1/C=N/O : does growth equal or exceed 60%?
true (1)

# check: growth of Cc1nn(-c2ccccc2)c2c1N=c1s/c(=C\c3ccc(C(F)(F)F)cc3)c(=O)n1CN2 is greater than or equal to 60%
true (1)

Confirm if growth reported for the compound NCCCNc1nc2ccccc2c2c(=O)c3cc(OC(F)(F)F)ccc3sc12 is 60% or above.
false (0)

Threshold query (growth >= 60%) on COc1ccc(N)c(N)c1
true (1)

# check: growth of COc1cc(CCCO)c(OC)c(OC)c1OC is greater than or equal to 60%
true (1)

Given the entry Cc1ccc(-c2nc(SCC(=O)Nc3nc(-c4ccc(Cl)cc4)cs3)[nH]c(=O)c2C#N)cc1 , answer whether its growth meets or surpasses 60%.
true (1)

Exam item: decide whether the reported growth for COc1ccc(C(=O)n2nc(-c3ccccc3)nc2N)cc1OC is at least 60%.
true (1)

Determine whether measured growth meets or exceeds 60% for CSc1ncccc1C(=O)OCC(=O)Nc1oc(C)c2c(C)n[nH]c(=O)c12
true (1)

Is growth for NCCCNc1nc2ccccc2c2c(=O)c3cc(F)cc(F)c3sc12 at or above 60%?
false (0)

Test whether the compound O=C(Nn1c(NCC(=O)N2c3ccccc3Sc3ccccc32)nnc1-c1ccc(O)cc1)c1ccccc1 records growth of 60% or higher.
true (1)

Dear colleague, could you confirm whether OC(COc1ccccc1Cl)CN1CCN(c2cccc(Cl)c2)CC1 (stereo unspecified) has growth at or above 60%?
true (1)

Hi, just wondering whether O=c1c2cc(F)cc(Cl)c2sc2c(NCCCNCCO)nc3ccccc3c12 shows growth of 60% or higher.
false (0)

Check if growth >= 60% (inclusive). Item: C=C(C)C1CCC2(C)OC2C1 (stereo unspecified)
true (1)

Is the recorded value of growth equal to or greater than 60% for this compound? CCOC(=O)NCCc1ccccc1
true (1)

Is the recorded value of growth equal to or greater than 60% for this compound? CCOC(=O)c1cn2ncnc(Oc3ccc(NC(=O)NCCN(C)C)c(Cl)c3)c2c1C
false (0)
